Entries annotated with measured IC50
System: IL-2 stimulated pSTAT5 in Tall-1 T cells
Measurement description: Inhibition of IL-2 Stimulated pSTAT5 in Tall-1 T Cells
Type: cell-based
Reported conditions: Tall-1 human T cell line, IL-2 300 ng/mL, AlphaLisa; read-out: Tall-1 IL2 pSTAT5 (pIC50) (converted)
Method: Assay 2: Inhibition of IL-2 Stimulated pSTAT5 in Tall-1 T Cells The potency of test compounds for inhibition of interleukin-2 (IL-2) stimulated STATS phosphorylation was measured in the Tall-1 human T cell line (DSMZ) using AlphaLisa. […] Phosphorylated STATS was measured via the AlphaLISA SureFire Ultra pSTAT5 (Tyr694/699) kit (PerkinElmer). […] Phosphorylated STATS was measured via the pSTAT5 AlphaLisa kit (PerkinElmer). […]

These solved cases illustrate the format of a correct answer.
COC(=O)N1[C@@H]2CCC[C@H]1C[C@H](N(C)c1nc(Nc3cc(C)[nH]n3)cc(O[C@@H]3CCOC3)n1)C2 :: 10 to 31.6 nM
Cc1cc(Nc2cc(OC3COC3)nc(N(C)[C@@H]3C[C@H]4CCC[C@@H](C3)N4CC(=O)N3CCCC3)n2)n[nH]1 :: ≤ 10 nM
COCCC(=O)N1[C@@H]2CCC[C@H]1C[C@H](N(C)c1nc(Nc3cc(C)[nH]n3)cc(O[C@@H]3CCOC3)n1)C2 :: ≤ 10 nM
Cc1cc(Nc2cc(O[C@H]3CCOC3)nc(N(C)[C@@H]3C[C@H]4CCC[C@@H](C3)N4CC(=O)N3CCCC3)n2)n[nH]1 :: ≤ 10 nM
CCOC(=O)N1[C@@H]2CCC[C@H]1C[C@H](N(C)c1nc(Nc3cc(C)[nH]n3)cc(O[C@@H]3CCOC3)n1)C2 :: 10 to 31.6 nM

For the next question, use this compound.
# input IC50 for COCCOC(=O)N1[C@@H]2CCC[C@H]1C[C@H](N(C)c1nc(Nc3cc(C)[nH]n3)cc(O[C@@H]3CCOC3)n1)C2 ?
# output 10 to 31.6 nM

====

Assayed target: Tyk2 (Homo sapiens (Human), UniProt P29597)
Sequence (P29597 whole entry): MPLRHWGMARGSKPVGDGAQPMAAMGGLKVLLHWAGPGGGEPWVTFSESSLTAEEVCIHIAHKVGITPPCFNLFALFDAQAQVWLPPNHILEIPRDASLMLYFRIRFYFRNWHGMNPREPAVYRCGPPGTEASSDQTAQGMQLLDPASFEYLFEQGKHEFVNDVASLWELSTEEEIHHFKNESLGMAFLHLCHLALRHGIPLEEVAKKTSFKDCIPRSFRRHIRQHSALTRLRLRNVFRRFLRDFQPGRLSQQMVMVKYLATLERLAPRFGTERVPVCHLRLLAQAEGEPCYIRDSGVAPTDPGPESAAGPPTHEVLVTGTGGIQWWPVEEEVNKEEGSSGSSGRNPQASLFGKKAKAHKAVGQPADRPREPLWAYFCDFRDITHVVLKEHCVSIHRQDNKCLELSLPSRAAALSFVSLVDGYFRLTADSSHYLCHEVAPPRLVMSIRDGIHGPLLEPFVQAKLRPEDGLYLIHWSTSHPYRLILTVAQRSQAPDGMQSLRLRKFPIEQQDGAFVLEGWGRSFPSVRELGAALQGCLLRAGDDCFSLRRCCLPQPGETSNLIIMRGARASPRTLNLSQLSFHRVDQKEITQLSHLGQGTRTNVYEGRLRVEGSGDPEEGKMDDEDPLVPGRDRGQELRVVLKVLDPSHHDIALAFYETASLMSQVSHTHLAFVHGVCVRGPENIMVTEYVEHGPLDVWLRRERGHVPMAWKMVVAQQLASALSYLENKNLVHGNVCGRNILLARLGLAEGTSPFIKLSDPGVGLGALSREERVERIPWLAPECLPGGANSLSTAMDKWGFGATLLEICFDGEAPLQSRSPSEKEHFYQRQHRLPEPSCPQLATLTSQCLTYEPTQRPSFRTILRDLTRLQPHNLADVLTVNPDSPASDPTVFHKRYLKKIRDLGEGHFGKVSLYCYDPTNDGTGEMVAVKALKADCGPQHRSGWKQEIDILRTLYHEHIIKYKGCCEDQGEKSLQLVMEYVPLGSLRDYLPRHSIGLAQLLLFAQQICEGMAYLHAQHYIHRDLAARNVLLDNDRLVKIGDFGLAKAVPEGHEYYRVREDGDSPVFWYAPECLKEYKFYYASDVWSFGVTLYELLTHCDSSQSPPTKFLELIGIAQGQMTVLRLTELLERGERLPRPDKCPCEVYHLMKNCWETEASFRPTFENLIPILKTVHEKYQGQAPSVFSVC
Measurement description: Biochemical JAK and Tyk2 Kinase Assays (LanthaScreen), Tyk2
Reported conditions: 10 μM ATP (Km); pIC50 converted to pKi by Cheng-Prusoff; read-out: Tyk 2 (pKi) (converted)
Protocol: Assay 1: Biochemical JAK and Tyk2 Kinase Assays A panel of four LanthaScreen JAK biochemical assays (JAK1, 2, 3 and Tyk2) were carried in a common kinase reaction buffer (50 mM HEPES, pH 7.5, 0.01% Brij-35, 10 mM MgCl2, and 1 mM EGTA). […] For dose-response analysis, percent inhibition data were plotted vs. compound concentrations, and IC50 values were determined from a 4-parameter robust fit model with the Prism software (GraphPad Software). […]
Entries annotated with measured Ki

# input Ki for COCCC(=O)N1[C@@H]2CCC[C@H]1C[C@H](N(C)c1nc(Nc3cc(C)[nH]n3)cc(O[C@@H]3CCOC3)n1)C2 [Compound 25] ?
# output 0.1 to 1 nM

# input Now the same for CCNC(=O)CN1[C@@H]2CCC[C@H]1C[C@H](N(C)c1nc(Nc3cc(C)[nH]n3)cc(O[C@H]3CCOC3)n1)C2 [Compound 32]
# output 0.1 to 1 nM

# input Now the same for Cc1cc(Nc2cc(O[C@@H]3CCOC3)nc(N(C)[C@@H]3C[C@H]4CCC[C@@H](C3)N4C(=O)OC3CCOCC3)n2)n[nH]1 [Compound 21]
# output 0.1 to 1 nM

====

Measurement description: physchem
Reported conditions: organic solvent or mixture, thermodynamic from solid, Solubility in Diisopropyl adipate (mg/mL)
Readout label: solubility at 4 h

Cc1cc(Nc2cc(O[C@@H]3CCOC3)nc(N(C)[C@@H]3C[C@H]4CCC[C@@H](C3)N4C(=O)OC3CCOCC3)n2)n[nH]1 [Compound 21] :: > 10000 µg/mL
CCNC(=O)CN1[C@@H]2CCC[C@H]1C[C@H](N(C)c1nc(Nc3cc(C)[nH]n3)cc(OC3COC3)n1)C2 [Compound 37] :: < 5000 µg/mL
CCOC(=O)N1[C@@H]2CCC[C@H]1C[C@H](N(C)c1nc(Nc3cc(C)[nH]n3)cc(O[C@@H]3CCOC3)n1)C2 [Compound 24] :: < 5000 µg/mL

# input solubility at 4 h for CCC(=O)N1[C@@H]2CCC[C@H]1C[C@H](N(C)c1nc(Nc3cc(C)[nH]n3)cc(O[C@H]3CCOC3)n1)C2 [Compound 28] ?
# output 5000 to 10000 µg/mL

# input Now the same for COCCOC(=O)N1[C@@H]2CCC[C@H]1C[C@H](N(C)c1nc(Nc3cc(C)[nH]n3)cc(O[C@@H]3CCOC3)n1)C2 [Compound 22]
# output > 10000 µg/mL

# input Now the same for COC(=O)N1[C@@H]2CCC[C@H]1C[C@H](N(C)c1nc(Nc3cc(C)[nH]n3)cc(O[C@H]3CCOC3)n1)C2 [Compound 27]
# output < 5000 µg/mL

====

Entries annotated with measured solubility at 4 h
Measurement description: physchem
Reported conditions: organic solvent or mixture, thermodynamic from solid, Solubility in PEG400 (mg/mL)

These solved cases illustrate the format of a correct answer.
Cc1cc(Nc2cc(O[C@H]3CCOC3)nc(N(C)[C@@H]3C[C@H]4CCC[C@@H](C3)N4C(=O)CC3CC3)n2)n[nH]1 :: < 5000 µg/mL
Cc1cc(Nc2cc(OC3COC3)nc(N(C)[C@@H]3C[C@H]4CCC[C@@H](C3)N4C(=O)CC3CC3)n2)n[nH]1 :: 5000 to 10000 µg/mL

# input solubility at 4 h for Cc1cc(Nc2cc(O[C@@H]3CCOC3)nc(N(C)[C@@H]3C[C@H]4CCC[C@@H](C3)N4CC(=O)N3CCCC3)n2)n[nH]1 ?
# output < 5000 µg/mL

# input Now the same for CCOC(=O)N1[C@@H]2CCC[C@H]1C[C@H](N(C)c1nc(Nc3cc(C)[nH]n3)cc(O[C@@H]3CCOC3)n1)C2
# output < 5000 µg/mL

# input Now the same for COCCC(=O)N1[C@@H]2CCC[C@H]1C[C@H](N(C)c1nc(Nc3cc(C)[nH]n3)cc(O[C@@H]3CCOC3)n1)C2
# output > 10000 µg/mL

# input Now the same for CCC(=O)N1[C@@H]2CCC[C@H]1C[C@H](N(C)c1nc(Nc3cc(C)[nH]n3)cc(O[C@H]3CCOC3)n1)C2
# output 5000 to 10000 µg/mL

====

Entries annotated with measured solubility at 4 h
Measurement description: physchem
Reported conditions: oil or lipid, thermodynamic from solid, Solubility in MCT (mg/mL)

These solved cases illustrate the format of a correct answer.
COC(=O)N1[C@@H]2CCC[C@H]1C[C@H](N(C)c1nc(Nc3cc(C)[nH]n3)cc(OC3COC3)n1)C2 :: < 5 mg/mL
CCNC(=O)CN1[C@@H]2CCC[C@H]1C[C@H](N(C)c1nc(Nc3cc(C)[nH]n3)cc(O[C@H]3CCOC3)n1)C2 :: < 5 mg/mL

# input solubility at 4 h for CCC(=O)N1[C@@H]2CCC[C@H]1C[C@H](N(C)c1nc(Nc3cc(C)[nH]n3)cc(O[C@H]3CCOC3)n1)C2 ?
# output < 5 mg/mL

====

Measurement description: physchem
Reported conditions: organic solvent or mixture, thermodynamic from solid, Solubility in Propylene glycol (mg/mL)
Entries annotated with measured solubility at 4 h

These solved cases illustrate the format of a correct answer.
COC(=O)N1[C@@H]2CCC[C@H]1C[C@H](N(C)c1nc(Nc3cc(C)[nH]n3)cc(O[C@@H]3CCOC3)n1)C2 :: > 10000 µg/mL
COC(=O)N1[C@@H]2CCC[C@H]1C[C@H](N(C)c1nc(Nc3cc(C)[nH]n3)cc(O[C@H]3CCOC3)n1)C2 :: < 5000 µg/mL
CCNC(=O)CN1[C@@H]2CCC[C@H]1C[C@H](N(C)c1nc(Nc3cc(C)[nH]n3)cc(O[C@@H]3CCOC3)n1)C2 :: > 10000 µg/mL

# input solubility at 4 h for Cc1cc(Nc2cc(O[C@@H]3CCOC3)nc(N(C)[C@@H]3C[C@H]4CCC[C@@H](C3)N4CC(=O)N3CCCC3)n2)n[nH]1 ?
# output < 5000 µg/mL

# input Now the same for Cc1cc(Nc2cc(O[C@@H]3CCOC3)nc(N(C)[C@@H]3C[C@H]4CCC[C@@H](C3)N4C(=O)OC3CCOCC3)n2)n[nH]1
# output > 10000 µg/mL

# input Now the same for Cc1cc(Nc2cc(O[C@H]3CCOC3)nc(N(C)[C@@H]3C[C@H]4CCC[C@@H](C3)N4CC(=O)N3CCCC3)n2)n[nH]1
# output < 5000 µg/mL
